target: Toll-like receptor 7 (Homo sapiens, UniProt Q9NYK1); test: Agonist activity at human TLR7 in HEK-Blue hTLR7 cells harboring SEAP reporter transgene incubated for 18 hrs by quanti-blue reagent based assay
Sequence (Q9NYK1 whole entry): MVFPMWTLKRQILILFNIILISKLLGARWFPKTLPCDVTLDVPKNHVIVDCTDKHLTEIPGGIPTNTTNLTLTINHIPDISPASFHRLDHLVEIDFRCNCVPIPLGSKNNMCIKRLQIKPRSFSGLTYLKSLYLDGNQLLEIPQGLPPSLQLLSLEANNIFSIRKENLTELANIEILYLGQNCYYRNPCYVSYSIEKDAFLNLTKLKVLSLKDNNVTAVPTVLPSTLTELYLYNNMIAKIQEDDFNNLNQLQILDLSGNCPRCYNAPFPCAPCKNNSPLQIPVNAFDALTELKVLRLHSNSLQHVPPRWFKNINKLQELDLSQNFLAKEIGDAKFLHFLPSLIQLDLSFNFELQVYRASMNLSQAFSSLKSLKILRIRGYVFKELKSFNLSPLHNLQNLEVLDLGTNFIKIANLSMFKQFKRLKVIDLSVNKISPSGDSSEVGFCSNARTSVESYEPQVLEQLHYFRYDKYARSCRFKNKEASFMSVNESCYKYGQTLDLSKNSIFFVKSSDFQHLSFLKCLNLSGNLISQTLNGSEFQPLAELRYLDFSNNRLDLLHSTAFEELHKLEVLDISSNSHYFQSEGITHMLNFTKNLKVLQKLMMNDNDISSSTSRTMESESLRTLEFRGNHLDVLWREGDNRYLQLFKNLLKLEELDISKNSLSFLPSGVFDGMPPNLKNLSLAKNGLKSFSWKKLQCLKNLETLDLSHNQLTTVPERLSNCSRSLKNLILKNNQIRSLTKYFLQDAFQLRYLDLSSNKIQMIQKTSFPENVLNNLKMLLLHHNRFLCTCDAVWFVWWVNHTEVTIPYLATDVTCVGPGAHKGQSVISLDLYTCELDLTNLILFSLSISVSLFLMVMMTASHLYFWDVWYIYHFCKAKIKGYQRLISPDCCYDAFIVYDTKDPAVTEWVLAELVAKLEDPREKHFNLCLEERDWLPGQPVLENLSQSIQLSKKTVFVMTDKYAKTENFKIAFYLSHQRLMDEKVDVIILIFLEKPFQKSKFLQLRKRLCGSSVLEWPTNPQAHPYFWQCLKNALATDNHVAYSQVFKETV
measurement-type: pEC50
Just so you know, pEC50 here is -log10 of the concentration in molar units; reply with that number alone.

Use the examples below as a reference point.
- smiles-structure: "CCCCNc1nc(N)nc2cnn(Cc3ncc(C4CCNCC4)cc3OC)c12"
  measurement-type: "pEC50"
  reported-value: 7.08
- smiles-structure: "CCCCNc1nc(N)nc2c(CC)nn(Cc3ncc(C4CCNCC4)cc3OC)c12"
  measurement-type: "pEC50"
  reported-value: 6.24
- smiles-structure: "CCC[C@@H](CCO)Nc1nc(N)nc2cnn(Cc3ncc(C4CCC5(CC4)CN(C(C)C)C5)cc3OC)c12"
  measurement-type: "pEC50"
  reported-value: 7.68
- smiles-structure: "CCC[C@@H](CCO)Nc1nc(N)nc2cnn(Cc3ncc(C4CCC5(CC4)CN(C4CCOCC4)C5)cc3OC)c12"
  measurement-type: "pEC50"
  reported-value: 7.92
- smiles-structure: "CCC[C@@H](CCO)Nc1nc(N)nc2cnn(Cc3ncc(C4CCN(CC#N)CC4)cc3OC)c12"
  measurement-type: "pEC50"
  reported-value: 6.84

Then there is this compound:
Query :: Which value of pEC50 has been reported for `CCC[C@@H](CCO)Nc1nc(N)nc2cnn(Cc3ncc(C4CC5(CNC5)C4)cc3OC)c12` in the records?
Result :: 6.43

* * *

target: Cytochrome P450 3A4 (Homo sapiens, UniProt P08684); test: Inhibition of CYP3A4 (unknown origin) using BFC as substrate; format: ADME
Sequence (P08684 whole entry): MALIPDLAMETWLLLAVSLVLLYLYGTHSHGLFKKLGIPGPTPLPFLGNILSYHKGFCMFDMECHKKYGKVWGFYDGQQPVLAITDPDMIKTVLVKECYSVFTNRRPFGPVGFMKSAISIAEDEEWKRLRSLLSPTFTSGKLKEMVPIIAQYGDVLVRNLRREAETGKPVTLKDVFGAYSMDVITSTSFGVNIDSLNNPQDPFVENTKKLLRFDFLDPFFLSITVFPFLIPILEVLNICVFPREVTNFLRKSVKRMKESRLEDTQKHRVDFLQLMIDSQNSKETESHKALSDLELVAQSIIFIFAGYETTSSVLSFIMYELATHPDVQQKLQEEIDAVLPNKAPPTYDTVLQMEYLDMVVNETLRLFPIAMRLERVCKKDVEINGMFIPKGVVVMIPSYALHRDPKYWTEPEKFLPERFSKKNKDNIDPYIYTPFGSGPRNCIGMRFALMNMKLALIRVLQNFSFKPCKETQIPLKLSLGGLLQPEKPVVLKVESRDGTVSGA
pIC50: −log10 of the molar value.
Measured pIC50, listed per entry for reference.

Use the examples below as a reference point.
- smiles-structure: "CCC[C@@H](CCO)Nc1nc(N)nc2cnn(Cc3ncc(C4CC5(CNC5)C4)cc3OC)c12"
  experimental-target: "Cytochrome P450 3A4 (Homo sapiens, UniProt P08684)"
  pIC50: "< 4.77"
- smiles-structure: "CCC[C@@H](CCO)Nc1nc(N)nc2cnn(Cc3ncc(C4CC5(C4)CN(C4CCOCC4)C5)cc3OC)c12"
  experimental-target: "Cytochrome P450 3A4 (Homo sapiens, UniProt P08684)"
  pIC50: "< 4.70"
- smiles-structure: "CCC[C@@H](CCO)Nc1nc(N)nc2cnn(Cc3ncc(C4CCN(C)CC4)cc3OC)c12"
  experimental-target: "Cytochrome P450 3A4 (Homo sapiens, UniProt P08684)"
  pIC50: "< 4.70"
- smiles-structure: "CCC[C@@H](CCO)Nc1nc(N)nc2cnn(Cc3ncc(C4=CC5(CCN(C(C)C)CC5)C4)cc3OC)c12"
  experimental-target: "Cytochrome P450 3A4 (Homo sapiens, UniProt P08684)"
  pIC50: "< 4.70"
- smiles-structure: "CCCCNc1nc(N)nc2c(CC)nn(Cc3ncc(C4CCNCC4)cc3OC)c12"
  experimental-target: "Cytochrome P450 3A4 (Homo sapiens, UniProt P08684)"
  pIC50: "< 4.70"
- smiles-structure: "CCCCNc1nc(N)nc2cnn(Cc3ccc(N4CCNCC4)cc3OC)c12"
  experimental-target: "Cytochrome P450 3A4 (Homo sapiens, UniProt P08684)"
  pIC50: "< 4.70"
- smiles-structure: "CCCCNc1nc(N)nc2cnn(Cc3ccc(CNC4CCC4)cc3OC)c12"
  experimental-target: "Cytochrome P450 3A4 (Homo sapiens, UniProt P08684)"
  pIC50: 5.09
- smiles-structure: "CCC[C@@H](CCO)Nc1nc(N)nc2cnn(Cc3ncc(C4CCNCC4)cc3OC)c12"
  experimental-target: "Cytochrome P450 3A4 (Homo sapiens, UniProt P08684)"
  pIC50: "< 4.70"

Then there is this compound:
Query :: Which value of pIC50 has been reported for `CCCCNc1nc(N)nc2c(C3CC3)nn(Cc3ncc(C4CCNCC4)cc3OC)c12` in the records?
Result :: 5.00
